molecular target: EGFR on EGFR-overexpressing tumor cell line A431 (Homo sapiens, A431 cells, UniProt P00533); assay: cell-based or functional assay
API: label(entry) gives t if the entry's ADCC EC50 killing: NK cell-mediated lysis of EGFR-overexpressing A431 cells, E:T 5:1 is strictly smaller than 0.03 nM; on equality or larger values it gives f.

60E11 IgG (antibody, synthetic bovine IGHV1-7 (VHBUL) scaffold, FR1 to FR3; ultralong CDR-H3 (stalk and knob) of clone 60E11 from immunised cattle; FR4 of the synthetic VH domain; human IgG1 heavy chain constant regions; as the light chain of m3: bovine VL (V30, VLλ30) deduced from PDB entries that share a CDR-identical light chain; human constant lambda region (CLλ); chimeric IgG1; also called chimeric bovine × …) VH: QVQLRESGPSLVKPSQTLSLTCTASGFSLSDKAVGWVRQAPGKALEWLGGIDTGGSTGYNPGLKSRLSITKDNSKSQVSLSVSSVTTEDSATYYCTTVHQRTRKTCPDGWRDGSDCPYGHRCGDYDCCGYGCYDGRGTNRFTGVVESYTYEWYVDAWGQGLLVTVSS VL: EAVLNQPSSVSGSLGQRVSITCSGSSSNVGNGYVSWYQLIPGSAPRTLIYGDTSRASGVPDRFSGSRSGNTATLTISSLQAEDEADYFCASAEDSSSNAVFGSGTTLTVL: t
60F06 IgG (antibody, synthetic bovine IGHV1-7 (VHBUL) scaffold, FR1 to FR3; ultralong CDR-H3 (stalk and knob) of clone 60F06 from immunised cattle; FR4 of the synthetic VH domain; human IgG1 heavy chain constant regions; as the light chain of m3: bovine VL (V30, VLλ30) deduced from PDB entries that share a CDR-identical light chain; human constant lambda region (CLλ); chimeric IgG1; also called chimeric bovine × …) VH: QVQLRESGPSLVKPSQTLSLTCTASGFSLSDKAVGWVRQAPGKALEWLGGIDTGGSTGYNPGLKSRLSITKDNSKSQVSLSVSSVTTEDSATYYCTTVHQRTEKIAKCPDGYSDARHCRDGCDCFGWDCFRSGAWAECYYEVYTYVHTYEHHVDAWGQGLLVTVSS VL: EAVLNQPSSVSGSLGQRVSITCSGSSSNVGNGYVSWYQLIPGSAPRTLIYGDTSRASGVPDRFSGSRSGNTATLTISSLQAEDEADYFCASAEDSSSNAVFGSGTTLTVL: t
60C03 IgG (antibody, synthetic bovine IGHV1-7 (VHBUL) scaffold, FR1 to FR3; ultralong CDR-H3 (stalk and knob) of clone 60C03 from immunised cattle; FR4 of the synthetic VH domain; human IgG1 heavy chain constant regions; bovine VL (V30, VLλ30) deduced from PDB entries that share a CDR-identical light chain; human constant lambda region (CLλ); chimeric IgG1; all clones share one fixed light chain and VH scaffold and …) VH: QVQLRESGPSLVKPSQTLSLTCTASGFSLSDKAVGWVRQAPGKALEWLGGIDTGGSTGYNPGLKSRLSITKDNSKSQVSLSVSSVTTEDSATYYCTTVHQETKKENSCPDGYTSGVECRFRGYTCANDGCWRVCSFTTCSGWMPASDTYRYEYHVDAWGQGLLVTVSS VL: EAVLNQPSSVSGSLGQRVSITCSGSSSNVGNGYVSWYQLIPGSAPRTLIYGDTSRASGVPDRFSGSRSGNTATLTISSLQAEDEADYFCASAEDSSSNAVFGSGTTLTVL: t
60D01 IgG (antibody, synthetic bovine IGHV1-7 (VHBUL) scaffold, FR1 to FR3; ultralong CDR-H3 (stalk and knob) of clone 60D01 from immunised cattle; FR4 of the synthetic VH domain; human IgG1 heavy chain constant regions; as the light chain of m3: bovine VL (V30, VLλ30) deduced from PDB entries that share a CDR-identical light chain; human constant lambda region (CLλ); chimeric IgG1; also called chimeric bovine × …) VH: QVQLRESGPSLVKPSQTLSLTCTASGFSLSDKAVGWVRQAPGKALEWLGGIDTGGSTGYNPGLKSRLSITKDNSKSQVSLSVSSVTTEDSATYYCTTVHQETTKTASCPDGYAEHFGRGWGYWGCGGCDCCQENGAGGGWGNCGLYSTSYTYEHHIDAWGQGLLVTVSS VL: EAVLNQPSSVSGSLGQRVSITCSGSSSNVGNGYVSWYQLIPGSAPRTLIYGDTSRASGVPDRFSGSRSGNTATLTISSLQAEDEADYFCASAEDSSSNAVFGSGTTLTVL: f

# TODO verify ADCC EC50 killing: NK cell-mediated lysis of EGFR-overexpressing A431 cells, E:T 5:1 < 0.03 nM strictly for this binder: 60H05 IgG (antibody, synthetic bovine IGHV1-7 (VHBUL) scaffold, FR1 to FR3; ultralong CDR-H3 (stalk and knob) of clone 60H05 from immunised cattle; FR4 of the synthetic VH domain; human IgG1 heavy chain constant regions; as the light chain of m3: bovine VL (V30, VLλ30) deduced from PDB entries that share a CDR-identical light chain; human constant lambda region (CLλ); chimeric IgG1; also called chimeric bovine × …) VH: QVQLRESGPSLVKPSQTLSLTCTASGFSLSDKAVGWVRQAPGKALEWLGGIDTGGSTGYNPGLKSRLSITKDNSKSQVSLSVSSVTTEDSATYYCTTVHQKTNKLKSCPDGYTSGVECRFRGYTCANDGCWRVCSFTTCSGWMPASDTYRYEYHVDAWGQGLLVTVSS VL: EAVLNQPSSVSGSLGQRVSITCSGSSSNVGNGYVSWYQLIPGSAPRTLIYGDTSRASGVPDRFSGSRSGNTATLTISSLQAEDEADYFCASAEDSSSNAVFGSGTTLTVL
t

Just for reference, paper PMC8573386 is where these values come from.
